# target: BRAF V600E (Homo sapiens, UniProt P15056, V600E)
# Sequence (P15056 whole entry V600E): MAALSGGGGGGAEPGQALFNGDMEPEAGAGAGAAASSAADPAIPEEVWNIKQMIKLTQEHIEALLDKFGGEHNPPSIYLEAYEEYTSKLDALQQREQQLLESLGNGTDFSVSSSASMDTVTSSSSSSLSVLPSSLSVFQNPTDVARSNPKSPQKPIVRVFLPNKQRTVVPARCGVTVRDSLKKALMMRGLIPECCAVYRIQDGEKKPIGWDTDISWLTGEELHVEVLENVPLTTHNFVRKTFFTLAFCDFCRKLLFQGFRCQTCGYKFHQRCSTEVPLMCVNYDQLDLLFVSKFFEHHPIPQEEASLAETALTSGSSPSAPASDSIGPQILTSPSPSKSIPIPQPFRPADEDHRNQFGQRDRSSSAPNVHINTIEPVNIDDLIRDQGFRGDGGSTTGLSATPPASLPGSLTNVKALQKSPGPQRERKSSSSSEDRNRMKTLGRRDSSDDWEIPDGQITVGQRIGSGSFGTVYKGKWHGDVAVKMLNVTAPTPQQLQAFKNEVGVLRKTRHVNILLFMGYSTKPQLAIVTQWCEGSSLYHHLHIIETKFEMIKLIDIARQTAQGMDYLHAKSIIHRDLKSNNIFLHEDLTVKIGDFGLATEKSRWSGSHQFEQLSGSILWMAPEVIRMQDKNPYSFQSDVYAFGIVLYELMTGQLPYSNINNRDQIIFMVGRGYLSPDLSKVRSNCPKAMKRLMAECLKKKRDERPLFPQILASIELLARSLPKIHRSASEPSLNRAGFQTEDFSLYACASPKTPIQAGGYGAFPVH
# assay.protocol: HiBiT cellular BRAF^V600E degradation assay
# Format: cell-based
# condition.description: read-out: HiBit 24 h Emax
readout.type: Emax (%)

{"compound": "CCN(C)S(=O)(=O)Nc1ccc(F)c(Oc2ccc3ncn(CCC4CCN(C(=O)CN5CCC(c6ccc(NC7CCC(=O)NC7=O)c(F)c6)CC5)CC4)c(=O)c3c2)c1C#N (stereo not shown)", "endpoint.value": 14.7}
{"compound": "CCN(C)S(=O)(=O)Nc1ccc(F)c(Oc2ccc3ncn(-c4cnc(N5CCN(C(=O)CN6CCC(c7ccc(N[C@@H]8CCC(=O)NC8=O)cc7F)CC6)CC5)nc4)c(=O)c3c2)c1C#N", "endpoint.value": 10.4}
{"compound": "CCN(C)S(=O)(=O)Nc1ccc(F)c(Oc2ccc3ncn(-c4ccc(N5CCN(C(=O)CN6CCC(c7cc(OC)c(NC8CCC(=O)NC8=O)cc7F)CC6)CC5)nc4)c(=O)c3c2)c1C#N (stereo not shown)", "endpoint.value": 10.7}
{"compound": "CCN(C)S(=O)(=O)Nc1ccc(F)c(Oc2ccc3ncn(CC(C)CC4CCN(C(=O)CN5CCC(c6ccc(NC7CCC(=O)NC7=O)cc6F)CC5)CC4)c(=O)c3c2)c1C#N (stereo not shown)", "endpoint.value": 8.11}
{"compound": "CCN(C)S(=O)(=O)Nc1ccc(F)c(Oc2ccc3ncn([C@H]4CCC5(CCN(C(=O)CN6CCC(c7ccc(NC8CCC(=O)NC8=O)c(F)c7F)CC6)CC5)C4)c(=O)c3c2)c1C#N (stereo partly shown)", "endpoint.value": 9.52}
{"compound": "CCN(C)S(=O)(=O)Nc1ccc(F)c(Oc2ccc3ncn(-c4cnc(N5CCN(C(=O)[C@H](CO)N6CCC(c7ccc(N[C@H]8CCC(=O)NC8=O)cc7F)CC6)CC5)nc4)c(=O)c3c2)c1C#N", "endpoint.value": 10.1}
{"compound": "CCN(C)S(=O)(=O)Nc1ccc(F)c(Oc2ccc3ncn(-c4cnc(N5CCN(C(=O)CN6CCC(c7cc(OC)c(NC8CCC(=O)NC8=O)cc7F)CC6)CC5)nc4)c(=O)c3c2)c1C#N (stereo not shown)", "endpoint.value": 9.01}
{"compound": "CCN(C)S(=O)(=O)Nc1ccc(F)c(Oc2ccc3ncn([C@H]4COC5(CCN(C(=O)CN6CCC(c7ccc(NC8CCC(=O)NC8=O)c(F)c7)CC6)CC5)C4)c(=O)c3c2)c1C#N (stereo partly shown)", "endpoint.value": 12.1}
{"compound": "N#Cc1c(NS(=O)(=O)N2CCCC2)ccc(F)c1Oc1ccc2ncn(-c3cnc(N4CCN(C(=O)CN5CCC(c6ccc(N[C@H]7CCC(=O)NC7=O)cc6F)CC5)CC4)nc3)c(=O)c2c1", "endpoint.value": 9.8}

###

# target: BRAF V600E (Homo sapiens, UniProt P15056, V600E)
# assay.protocol: HiBiT cellular BRAF^V600E degradation assay
# Format: cell-based
# condition.description: A375.10 cells, 24 h; concentration at which 50% of total cellular BRAF^V600E is degraded
readout.type: DC50 (µM)

{"molecule": "CCN(C)S(=O)(=O)Nc1ccc(F)c(Oc2ccc3ncn(-c4cnc(N5CCN(C(=O)CN6CCC(c7ccc(N[C@@H]8CCC(=O)NC8=O)cc7F)CC6)CC5)nc4)c(=O)c3c2OC)c1C#N", "readout.type": "DC50", "value.unit": "µM", "endpoint.value": 0.0342}
{"molecule": "CCN(C)S(=O)(=O)Nc1ccc(F)c(Oc2ccc3ncn([C@H]4COC5(CCN(C(=O)CN6CCC(c7ccc(N[C@H]8CCC(=O)NC8=O)cc7F)CC6)CC5)C4)c(=O)c3c2)c1C#N", "readout.type": "DC50", "value.unit": "µM", "endpoint.value": 0.0237}
{"molecule": "CCN(C)S(=O)(=O)Nc1ccc(F)c(Oc2ccc3ncn(C4COC5(CCN(C(=O)CN6CCC(c7ccc8c(C9CCC(=O)NC9=O)nn(C)c8c7)CC6)CC5)C4)c(=O)c3c2)c1C#N (single isomer, unassigned)", "readout.type": "DC50", "value.unit": "µM", "endpoint.value": 0.0124}
{"molecule": "CCN(C)S(=O)(=O)Nc1ccc(F)c(Oc2ccc3ncn(-c4cnn(C5CCN(C(=O)CN6CCC(c7ccc(NC8CCC(=O)NC8=O)cc7F)CC6)CC5)c4)c(=O)c3c2)c1C#N (stereo not drawn)", "readout.type": "DC50", "value.unit": "µM", "endpoint.value": 0.0205}
{"molecule": "CCN(C)S(=O)(=O)Nc1ccc(F)c(Oc2ccc3ncn([C@H]4COC5(CCN(C(=O)CN6CC[C@@H](c7cc8c(cc7F)c(N7CCC(=O)NC7=O)nn8C)C(F)(F)C6)CC5)C4)c(=O)c3c2)c1C#N (single isomer, unassigned)", "readout.type": "DC50", "value.unit": "µM", "endpoint.value": 0.0298}
{"molecule": "CCN(C)S(=O)(=O)Nc1ccc(F)c(Oc2ccc3ncn([C@H]4COC5(CCN(C(=O)CN6CCN(c7ccc(NC8CCC(=O)NC8=O)cc7F)CC6)CC5)C4)c(=O)c3c2)c1C#N (stereo partly drawn)", "readout.type": "DC50", "value.unit": "µM", "endpoint.value": 0.128}
{"molecule": "CCN(C)S(=O)(=O)Nc1cccc(Oc2ccc3ncn(C4CC5(CCN(C(=O)CN6CCC(c7ccc(NC8CCC(=O)NC8=O)cc7F)CC6)CC5)C4)c(=O)c3c2)c1C#N (stereo not drawn)", "readout.type": "DC50", "value.unit": "µM", "endpoint.value": 0.00849}
{"molecule": "CCN(C)S(=O)(=O)Nc1ccc(F)c(Oc2ccc3ncn(-c4cnc(N5CCN(C(=O)CN6CCC(c7ccc(N[C@@H]8CCC(=O)NC8=O)cc7F)CC6)CC5)nc4)c(=O)c3c2)c1C#N", "readout.type": "DC50", "value.unit": "µM", "endpoint.value": 0.0107}
{"molecule": "CCN(C)S(=O)(=O)Nc1ccc(F)c(Oc2ccc3ncn([C@H]4COC5(CCN(C(=O)C[C@H]6CC[C@H](c7ccc8c(C9CCC(=O)NC9=O)nn(C)c8c7)CC6)CC5)C4)c(=O)c3c2)c1C#N (single isomer, unassigned)", "readout.type": "DC50", "value.unit": "µM", "endpoint.value": 0.0119}

###

# target: BRAF V600E (Homo sapiens, UniProt P15056, V600E)
# assay.protocol: HiBiT cellular BRAF^V600E degradation assay
# Type: cell-based
# condition.description: read-out: HiBit 24 h Emax
List of Emax values.
readout.type: Emax (%)

{"compound": "CCN(C)S(=O)(=O)Nc1ccc(F)c(Oc2ccc3ncn([C@H]4COC5(CCN(C(=O)CC6CCN(c7cc8c(cc7F)c(N7CCC(=O)NC7=O)nn8C)CC6)CC5)C4)c(=O)c3c2)c1C#N [Example 180]", "endpoint.value": 20.6}
{"compound": "Cn1nc(N2CCC(=O)NC2=O)c2cc(F)c(N3CCC(O)(CC(=O)N4CCC5(CC4)C[C@@H](n4cnc6ccc(Oc7c(F)ccc(NS(=O)(=O)C8CCCCC8)c7C#N)cc6c4=O)CO5)CC3)cc21 [Example 188]", "endpoint.value": 27.3}
{"compound": "N#Cc1c(NS(=O)(=O)N2CCCCC2)ccc(F)c1Oc1ccc2ncn(-c3cnc(N4CCN(C(=O)CN5CCC(c6ccc(N[C@@H]7CCC(=O)NC7=O)cc6F)CC5)CC4)nc3)c(=O)c2c1 [Example 106]", "endpoint.value": 16.7}
{"compound": "N#Cc1c(NS(=O)(=O)C2CCCCC2)ccc(F)c1Oc1ccc2ncn(-c3cnc(N4CCN(C(=O)CN5CCC(c6ccc(N[C@H]7CCC(=O)NC7=O)cc6F)CC5)CC4)nc3)c(=O)c2c1 [Example 105]", "endpoint.value": 11.8}
{"compound": "CCN(C)S(=O)(=O)Nc1ccc(F)c(Oc2ccc3ncn(C4CC5(CCN(C(=O)NC6CCN(c7ccc(NC8CCC(=O)NC8=O)cc7F)CC6)CC5)C4)c(=O)c3c2)c1C#N (centres unmarked) [Example 37]", "endpoint.value": 16.2}

###

# target: BRAF V600E (Homo sapiens, UniProt P15056, V600E)
# assay.protocol: HiBiT cellular BRAF^V600E degradation assay
# Type: cell-based
# condition.description: A375.10 cells, 24 h; residual protein remaining in the cell; read-out: HiBit 24 h Emax
readout.type: Emax (%)

{"molecule": "CCN(C)S(=O)(=O)Nc1ccc(F)c(C(=O)c2ccc3ncn(-c4cnc(N5CCN(C(=O)CN6CCC(c7ccc(N[C@@H]8CCC(=O)NC8=O)cc7F)CC6)CC5)nc4)c(=O)c3c2)c1F [Example 141]", "endpoint.value": 26.3}
{"molecule": "Cn1nc(N2CCC(=O)NC2=O)c2cc(F)c(N3CCC(O)(CC(=O)N4CCC5(CC4)C[C@@H](n4cnc6ccc(Oc7c(F)ccc(NS(=O)(=O)N8CC9CC9C8)c7C#N)cc6c4=O)CO5)CC3)cc21 (some centres unmarked) [Example 194]", "endpoint.value": 26.2}
{"molecule": "CCN(C)S(=O)(=O)Nc1ccc(F)c(Oc2ccc3ncn([C@@H]4CCC5(CCN(C(=O)CN6CCC(c7ccc(N[C@H]8CCC(=O)NC8=O)cc7F)CC6)CC5)C4)c(=O)c3c2)c1C#N [Example 45]", "endpoint.value": 11.3}
{"molecule": "CCN(C)S(=O)(=O)Nc1ccc(F)c(Oc2ccc3ncn(-c4cnn(C5CCN(C(=O)CN6CCC(c7ccc(NC8CCC(=O)NC8=O)cc7)CC6)CC5)c4)c(=O)c3c2)c1C#N (centres unmarked) [Example 18]", "endpoint.value": 18.5}
{"molecule": "CCN(C)S(=O)(=O)Nc1ccc(F)c(Oc2ccc3ncn([C@H]4CCC5(CCN(C(=O)CN6CCC(c7ccc(NC8CCC(=O)NC8=O)cc7F)CC6)CC5)C4)c(=O)c3c2Cl)c1C#N (single isomer, unassigned) [Example 79]", "endpoint.value": 12.9}
